meta.source: ChEMBL document CHEMBL1201862

For reference, IC50 measured on Glyceraldehyde-3-phosphate dehydrogenase (Homo sapiens):

- Compound: "c1ccc(CN2CCN=C2c2cccnc2)cc1"
  IC50: "> 100 µM (not active)"
- Compound: "Cn1nc(C(=O)O)cc1-c1ccc(F)cc1"
  IC50: "> 100 µM (not active)"
- Compound: "COc1ccc(S(=O)(=O)Nc2cnc3ccccc3c2)c(OC)c1"
  IC50: "> 100 µM (not active)"
- Compound: "CCOc1ccc(S(=O)(=O)Nc2nc3ccccc3nc2Cl)cc1"
  IC50: "> 100 µM (not active)"
- Compound: "CC1(C)CC(=O)c2c(n[nH]c2Cc2ccccc2)C1"
  IC50: "> 100 µM (not active)"
- Compound: "NC1=NC(=O)/C(=C/c2ccc(-c3cc([N+](=O)[O-])ccc3Cl)o2)S1"
  IC50: "> 100 µM (not active)"
- Compound: "Cc1cc(OCC(=O)Nc2nc[nH]n2)ccc1Cl"
  IC50: "> 10 µM (inconclusive)"
- Compound: "CC1CC(C)(C)NCCNC(C)CC(C)(C)NCCN1 (stereo not drawn)"
  IC50: "> 10 µM (inconclusive)"

###

# Experimental System: Heat shock factor protein 1 (Mus musculus, UniProt P38532)
# Sequence (P38532 whole entry): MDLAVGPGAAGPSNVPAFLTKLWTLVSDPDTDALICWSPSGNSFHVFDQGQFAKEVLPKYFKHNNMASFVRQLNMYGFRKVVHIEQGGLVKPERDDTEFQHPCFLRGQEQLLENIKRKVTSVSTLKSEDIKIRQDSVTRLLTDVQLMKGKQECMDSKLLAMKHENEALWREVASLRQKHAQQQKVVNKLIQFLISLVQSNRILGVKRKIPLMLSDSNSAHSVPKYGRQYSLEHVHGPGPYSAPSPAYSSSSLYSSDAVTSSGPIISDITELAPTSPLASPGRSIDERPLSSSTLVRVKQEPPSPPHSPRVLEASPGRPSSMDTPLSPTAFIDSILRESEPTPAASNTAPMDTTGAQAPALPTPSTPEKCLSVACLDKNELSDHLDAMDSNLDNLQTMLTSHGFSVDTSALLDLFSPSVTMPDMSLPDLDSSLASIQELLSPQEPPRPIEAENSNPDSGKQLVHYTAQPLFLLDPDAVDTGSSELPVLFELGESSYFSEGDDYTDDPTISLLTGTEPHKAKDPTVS
# Protocol Summary: inhibition of MG132-induced HSE-luciferase signal, confirmation, cell-based, NIH3T3, luminescence, dose retest (AID 2382);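 also: NIH3T3 fibroblasts with HSF1-driven luciferase reporter stressed by proteasome inhibitor MG132; luminescence from HSF1-driven luciferase expression after 8 hours of MG132 stress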
# Assay type: functional
Activity calls are given as the source filed them.

- Compound: "COc1ccc2nc(NC(=O)CN3CCOCC3)sc2c1"
  EC50: "> 195 µM (not active)"
- Compound: "CCc1cccc(NC(=O)COC(=O)/C=C/c2cccs2)c1"
  EC50: "> 195 µM (not active)"
- Compound: "CS(=O)(=O)N(CC(=O)NCc1ccccc1)C1CCCCC1"
  EC50: "> 195 µM (not active)"
- Compound: "CC1(C)CC(=O)C2=C(C1)N(c1ccc(F)cc1)C(=O)CC2c1ccccc1 (stereo unspecified)"
  EC50: "> 195 µM (not active)"
- Compound: "Nc1nc(F)nc2c1ncn2[C@@H]1O[C@H](CO)[C@@H](O)[C@H]1O"
  EC50: "5.46 µM (active)"
- Compound: "COc1cccc2cc(C(=O)OC3CCN(C)CC3)c(=O)oc12"
  EC50: "> 195 µM (not active)"
